System: Plasmodium berghei
measurement protocol: Screen against P. berghei liver stage (PbLuc), transformed with Luciferase, at 10uM
Format: functional, HepG2
particulars: tested at 10 uM
Screen size: about 69,000 compounds; about 8,600 (12%) showed an effect of 50% or more. The full list was thinned out, with strong results kept by preference.
endpoint: INHIBITION (%)
Numbers only, in %.

OC(CNC1CCSCC1)c1cccc(OCc2ccccc2)c1 (centres undefined) | 44.5
C/C=C(\C)CN1C[C@H](NC(=O)c2cnc(O)cn2)C[C@H]1C(=O)NCC | -7.17
Nc1cc(-c2c[nH]nc2C2CCN(C(=O)C3CCCC3)C2)ccn1 (centres undefined) | 31.75
CSCc1cccc(S(=O)(=O)N2CCCCC2)c1 | 37.5

Each compound below has a reported value. Please supply its INHIBITION.
1. COc1ccc(C2CCCN2c2cnccn2)c(OC)c1 (centres undefined)
2. CCc1nc(C)cn1C(=O)Nc1ccc(C)cc1
3. CCn1ccnc1CN1CCN(c2ncnc3ccsc23)CC1
4. COc1ccccc1CN(Cc1cccc(C)c1)C(=O)[C@@H](N)CC(=O)O
5. CCc1nc(C)cn1C(=O)Nc1ccc(F)cc1

1. 31.6
2. -4.82
3. -50.7
4. 11.8
5. 78.2

Please report INHIBITION for every entry that follows.
1. C/C=C(\C)CN1C[C@@H](NC(=O)c2ccc(F)c(F)c2)C[C@H]1C(=O)NCC
2. CNc1cc(C2CN(C(=O)c3ccccc3)CCO2)nc(C)n1 (centres undefined)
3. Nc1cc(-c2c[nH]nc2C2CCCCN2C(=O)C2CCCC2)ccn1 (centres undefined)

1. 52
2. 23.9
3. 59.9

Please state, for each entry, its recorded INHIBITION.
1. Nc1cc(-c2c[nH]nc2C2CCCN2S(=O)(=O)c2ccccc2)ccn1 (centres undefined)
2. NCc1cccc(-c2cccnc2C(=O)NCCN2CCOCC2)c1

1: 39.1; 2: 25.8

---

Tested on: Plasmodium berghei
measurement protocol: Screen against P. berghei liver stage (PbLuc), transformed with Luciferase, at 10uM
Format: functional, HepG2
particulars: tested at 10 uM
Out of some 69,000 compounds screened, about 8,600 (12%) showed an effect of 50% or more. The sample as a whole holds a higher share of strong results than the screen did.
Hi there, I'd appreciate the recorded INHIBITION for every entry that follows.
One number for each entry, in %.

COC[C@@]12CC[C@@H](N3CCOCC3)C[C@H]1CCN(c1cc(C)ccn1)C2 | 70.3
Cc1c(S(=O)(=O)NCC(C)Cn2cc(Cl)cn2)cnn1C (stereo not given) | 35.8
O=C(NCc1cccs1)[C@H]1CO[C@H]2CCN(C3CCCC3)C[C@H]2C1 | 17.7
COC[C@@]12CC[C@@H](N3CCOCC3)C[C@H]1CCN(c1ncccc1C)C2 | 45.8
O=C(NCCc1cccs1)[C@H]1CO[C@H]2CCN(C3CCC3)C[C@H]2C1 | 62

Provide each entry's INHIBITION from the list below.
1. CN(C)CCN1CC[C@@H]2O[C@@H](COCC(=O)N3CCCC3)CC[C@@H]21
2. OCCn1cc(CN2CCN(CCOCC(F)(F)F)CC2)cn1
3. Fc1cnc(N2CCO[C@H]3[C@H](OCC4CCOCC4)CC[C@@H]32)nc1
4. CCCn1cc(CNCC(c2ccc(C)s2)N2CCOCC2)cn1 (stereo not given)

[29, 54.9, 38.5, 63.7]

Return reported INHIBITION values for all items listed beneath this line.
1. OCCn1cc(CN2CCN(CCOc3ccccc3)CC2)cn1
2. Cc1noc(C)c1CN1C[C@@H](OCC(=O)N(C)C)[C@H]2OCCC[C@H]21
3. O=C(Cc1cccc(F)c1)N1C[C@H]2CN(Cc3ccccn3)C[C@H]2C1
4. Cc1ccc(C(CNCc2ccc(C#N)cc2)N2CCOCC2)s1 (stereo not given)
5. Cc1n[nH]cc1CNc1ccc2c(c1)CN(C(=O)OC(C)(C)C)CC2
6. O=C(CCOc1ccccc1)N1CCC(Nc2cccnn2)CC1
7. NC(=O)CSc1nnc2n1N=CN(c1ccccc1F)C2
8. CN(Cc1cnn(C)c1)C(=O)NCC1CCS(=O)(=O)C1 (stereo not given)

[37.5, 74.8, 9.97, 69.7, 80.1, 50.4, -14.9, -22.3]

// each molecule listed below needs its INHIBITION
1. CN(C)C(=O)CO[C@@H]1CC[C@H]2[C@H]1OCCN2c1ncccn1
2. c1ccc(Cc2nc(CNC3CCC4(CCNCC4)CC3)no2)cc1
3. O=C(CCCc1ccccc1)N1CCC(Nc2cccnn2)CC1
4. CCc1cnc(CN(C(C)=O)C2CCN(CC3(O)CCCCC3)C2)o1 (stereo not given)
5. Cc1ccc(C(CNCc2cnn(C(C)C)c2)N2CCOCC2)s1 (stereo not given)
6. Cc1n[nH]cc1CNC(=O)[C@H]1CCCCN1C(=O)OC(C)(C)C
7. COC[C@@]12CC[C@@H](N3CCOCC3)C[C@H]1CCN(c1ccc(Cl)cn1)C2

1: 20.1; 2: 53.7; 3: -6.44; 4: 5.9; 5: -48.2; 6: 34.1; 7: 16.7

Batch request: INHIBITION for each of the following molecules.
1. CCN1CC(C(=O)NCCc2csc(-c3ccncc3)n2)CC1=O (stereo not given)
2. COC[C@@]12CC[C@@H](N3CCOCC3)C[C@H]1CCN(c1cnccn1)C2
3. CC(C)C1COC2(CCN(Cc3ccco3)CC2)C1 (stereo not given)
4. Cn1ccnc1C1CCCN(C(=O)c2ccc3nccnc3c2)C1 (stereo not given)
5. Cc1ccc(C(CNCc2cccn2C)N2CCOCC2)s1 (stereo not given)

[-2.92, -15.1, -2.35, 6.11, 38]
